- Test system: HT-29
- assay text: Growth inhibitory activity against HT-29 human solid tumor cell line using MTT assay
- Assay type: functional
readout: GI50 (nM)
Hi! Could you send only the number? It should be in nM, unit omitted.

response.value for COC1=CC(=O)c2c(cc(COP(N)(=O)N(CCCl)CCCl)n2C)C1=O (centres undefined) (field: GI50) = 210

Note to self: GI50 recorded for COC1=CC(=O)c2c(cc(COP(N)(=O)N(CCBr)CCBr)n2C)C1=O (centres undefined) was 61

Query COC1=CC(=O)c2c(c(COC(C)=O)cn2C)C1=O yields GI50 of 3

GI50 for COC1=CC(=O)c2c(c(COP(N)(=O)N3CCOCC3)cn2C)C1=O (centres undefined) is 7700

GI50 in this record for COC1=CC(=O)c2c(c(COP(N)(=O)N(CCBr)CCBr)cn2C)C1=O (centres undefined) : 240

The recorded GI50 for COC1=CC(=O)c2c(cc(COP(=O)(N(C)CCBr)N(C)CCBr)n2C)C1=O is 200

The compound COC1=CC(=O)c2c(c(COP(=O)(N(C)CCBr)N(C)CCBr)cn2C)C1=O showed GI50 equal to 65

Noted for COC1=CC(=O)c2c(cc(COC(C)=O)n2C)C1=O : its GI50 reads 34000

Memo: COC1=CC(=O)c2c(cc(COP(N)(=O)N3CCOCC3)n2C)C1=O (centres undefined) , reported GI50: 15000

---

I'd be grateful if you could share measured Selectivity for these entries.
- assay text: Selectivity ratio of LC99 of BE to LC99 of HT-29
- Type: functional
// response body must contain only the number

Sample COC1=CC(=O)c2c(cc(COP(N)(=O)N(CCBr)CCBr)n2C)C1=O (stereo unspecified) ; Selectivity observed: 65

Per the record, COC1=CC(=O)c2c(c(COC(C)=O)cn2C)C1=O has Selectivity of 10

For reference, reported Selectivity for COC1=CC(=O)c2c(cc(COP(=O)(N(C)CCBr)N(C)CCBr)n2C)C1=O stands at 6

compound COC1=CC(=O)c2c(c(COP(N)(=O)N(CCBr)CCBr)cn2C)C1=O (stereo unspecified) , Selectivity observed: 2

Selectivity reading for COC1=CC(=O)c2c(cc(COP(N)(=O)N(CCCl)CCCl)n2C)C1=O (stereo unspecified) : 69

COC1=CC(=O)c2c(c(COP(=O)(N(C)CCBr)N(C)CCBr)cn2C)C1=O yielded Selectivity of 2

---

- Tested on: UMUC3
- assay text: Growth inhibitory activity against UMUC3 human solid tumor cell line using MTT assay
- Type: functional
Give GI50 for every item shown.
A complete answer gives the number and then names the unit.

The recorded GI50 for COC1=CC(=O)c2c(cc(COP(=O)(N(C)CCBr)N(C)CCBr)n2C)C1=O is 17 nM

Reported GI50 ( COC1=CC(=O)c2c(c(COC(C)=O)cn2C)C1=O ) = 7 nM

GI50 recorded for this compound, COC1=CC(=O)c2c(c(COP(N)(=O)N3CCOCC3)cn2C)C1=O (centres undefined) , is 8200 nM

Entry COC1=CC(=O)c2c(cc(COP(N)(=O)N(CCCl)CCCl)n2C)C1=O (centres undefined) — recorded GI50 = 10 nM

---

- Test system: HT-29
- assay text: Inhibitory concentration that reduces clonogenic survival by 2 log units (99%) 2-hour after drug treatment in HT-29 human colon carcinoma cell line.
- Assay type: functional
Kindly return MET if reported LC99 is no lower than 0.2 µM; return NOT MET if it is lower.

Q) Hi, just wondering whether COC1=CC(=O)c2c(cc(COP(=O)(N(C)CCBr)N(C)CCBr)n2C)C1=O shows LC99 of 0.2 µM or higher.
A) MET

Q) Please tell me: is the compound COC1=CC(=O)c2c(c(COP(=O)(N(C)CCBr)N(C)CCBr)cn2C)C1=O at or over 0.2 µM in terms of LC99?
A) NOT MET

Q) Given COC1=CC(=O)c2c(c(COC(C)=O)cn2C)C1=O , state whether its LC99 is at least 0.2 µM.
A) MET

Q) LC99 >= 0.2 µM for COC1=CC(=O)c2c(c(COP(N)(=O)N(CCBr)CCBr)cn2C)C1=O (centres undefined) ?
A) MET

Q) Please check the record COC1=CC(=O)c2c(cc(COP(N)(=O)N(CCCl)CCCl)n2C)C1=O (centres undefined) and state if its LC99 is at or above 0.2 µM.
A) NOT MET

Q) Item COC1=CC(=O)c2c(c(COP(N)(=O)N3CCOCC3)cn2C)C1=O (centres undefined) with LC99 of 0.2 µM or above?
A) MET

Q) Given COC1=CC(=O)c2c(cc(COP(N)(=O)N3CCOCC3)n2C)C1=O (centres undefined) , state whether its LC99 is at least 0.2 µM.
A) MET

Q) Tell me whether LC99 is at least 0.2 µM here: COC1=CC(=O)c2c(cc(COP(N)(=O)N(CCBr)CCBr)n2C)C1=O (centres undefined)
A) NOT MET

Q) Could you tell me if the measured LC99 of COC1=CC(=O)c2c(cc(COC(C)=O)n2C)C1=O reaches 0.2 µM or more?
A) MET

---

- Tested on: UMUC3
- assay text: Growth inhibitory activity against UMUC3 human solid tumor cell line using MTT assay
- Type: functional
readout: GI50 (nM)
Provide only the numeric value, understood in nM.

The value of GI50 recorded for COC1=CC(=O)c2c(cc(COP(N)(=O)N(CCBr)CCBr)n2C)C1=O (stereo not given) when tested on UMUC3 reads 2

// returns GI50 for COC1=CC(=O)c2c(cc(COC(C)=O)n2C)C1=O with UMUC3; value = 9600

# lookup: COC1=CC(=O)c2c(c(COP(=O)(N(C)CCBr)N(C)CCBr)cn2C)C1=O on UMUC3, GI50 = 2

Bench note, UMUC3: entry COC1=CC(=O)c2c(cc(COP(N)(=O)N3CCOCC3)n2C)C1=O (stereo not given) , its GI50 = 10000

Form field, GI50 with UMUC3, item COC1=CC(=O)c2c(c(COP(N)(=O)N(CCBr)CCBr)cn2C)C1=O (stereo not given) : 10

---

- Tested on: A498
- assay text: Growth inhibitory activity against A498-2LM human solid tumor cell line using MTT assay
- Type: functional
For each entry below, report its GI50 value.
Only the number, expressed in nM, is required.

Entry COC1=CC(=O)c2c(cc(COC(C)=O)n2C)C1=O , GI50 reported as 34000

For reference, reported GI50 for COC1=CC(=O)c2c(cc(COP(=O)(N(C)CCBr)N(C)CCBr)n2C)C1=O stands at 2300

Summary for this molecule, COC1=CC(=O)c2c(c(COP(N)(=O)N3CCOCC3)cn2C)C1=O (centres undefined) : GI50 is 1200

Entry under test: COC1=CC(=O)c2c(c(COP(=O)(N(C)CCBr)N(C)CCBr)cn2C)C1=O . Its GI50 was 340

response.value for COC1=CC(=O)c2c(cc(COP(N)(=O)N(CCBr)CCBr)n2C)C1=O (centres undefined) (field: GI50) = 200

Reported GI50 of COC1=CC(=O)c2c(c(COP(N)(=O)N(CCBr)CCBr)cn2C)C1=O (centres undefined) : 1000

GI50 measured on COC1=CC(=O)c2c(cc(COP(N)(=O)N(CCCl)CCCl)n2C)C1=O (centres undefined) = 980

Lab book: GI50 of COC1=CC(=O)c2c(cc(COP(N)(=O)N3CCOCC3)n2C)C1=O (centres undefined) noted as 12000

Sample COC1=CC(=O)c2c(c(COC(C)=O)cn2C)C1=O ; GI50 observed: 37

---

- Tested on: A549
- assay text: Growth inhibitory activity against A549 human solid tumor cell line using MTT assay
- Assay type: functional
Please respond with reported GI50 for every item in the list.
State just the number; it will be interpreted in nM.

Notebook: COC1=CC(=O)c2c(cc(COP(=O)(N(C)CCBr)N(C)CCBr)n2C)C1=O , GI50 read as 1700

Lab note: measured GI50 of COC1=CC(=O)c2c(c(COP(=O)(N(C)CCBr)N(C)CCBr)cn2C)C1=O was 23

Short answer for COC1=CC(=O)c2c(cc(COP(N)(=O)N(CCBr)CCBr)n2C)C1=O (centres undefined) : GI50 was 3

Lab book: GI50 of COC1=CC(=O)c2c(c(COC(C)=O)cn2C)C1=O noted as 440

Input COC1=CC(=O)c2c(cc(COC(C)=O)n2C)C1=O . Output GI50: 26000

The recorded GI50 for COC1=CC(=O)c2c(c(COP(N)(=O)N(CCBr)CCBr)cn2C)C1=O (centres undefined) is 400

Sure, the documented GI50 for COC1=CC(=O)c2c(cc(COP(N)(=O)N3CCOCC3)n2C)C1=O (centres undefined) is 45000

The value of GI50 measured for the compound COC1=CC(=O)c2c(cc(COP(N)(=O)N(CCCl)CCCl)n2C)C1=O (centres undefined) turned out to be 22

The compound listed as COC1=CC(=O)c2c(c(COP(N)(=O)N3CCOCC3)cn2C)C1=O (centres undefined) has a reported GI50 of 12000

Origin of measurements: ChEMBL document CHEMBL1135537
